I'd appreciate it if you could supply pIC50 values for the items below.
TARGET SYSTEM: Sodium channel protein type 9 subunit alpha (Mus musculus)
Sequence (Q62205 whole entry): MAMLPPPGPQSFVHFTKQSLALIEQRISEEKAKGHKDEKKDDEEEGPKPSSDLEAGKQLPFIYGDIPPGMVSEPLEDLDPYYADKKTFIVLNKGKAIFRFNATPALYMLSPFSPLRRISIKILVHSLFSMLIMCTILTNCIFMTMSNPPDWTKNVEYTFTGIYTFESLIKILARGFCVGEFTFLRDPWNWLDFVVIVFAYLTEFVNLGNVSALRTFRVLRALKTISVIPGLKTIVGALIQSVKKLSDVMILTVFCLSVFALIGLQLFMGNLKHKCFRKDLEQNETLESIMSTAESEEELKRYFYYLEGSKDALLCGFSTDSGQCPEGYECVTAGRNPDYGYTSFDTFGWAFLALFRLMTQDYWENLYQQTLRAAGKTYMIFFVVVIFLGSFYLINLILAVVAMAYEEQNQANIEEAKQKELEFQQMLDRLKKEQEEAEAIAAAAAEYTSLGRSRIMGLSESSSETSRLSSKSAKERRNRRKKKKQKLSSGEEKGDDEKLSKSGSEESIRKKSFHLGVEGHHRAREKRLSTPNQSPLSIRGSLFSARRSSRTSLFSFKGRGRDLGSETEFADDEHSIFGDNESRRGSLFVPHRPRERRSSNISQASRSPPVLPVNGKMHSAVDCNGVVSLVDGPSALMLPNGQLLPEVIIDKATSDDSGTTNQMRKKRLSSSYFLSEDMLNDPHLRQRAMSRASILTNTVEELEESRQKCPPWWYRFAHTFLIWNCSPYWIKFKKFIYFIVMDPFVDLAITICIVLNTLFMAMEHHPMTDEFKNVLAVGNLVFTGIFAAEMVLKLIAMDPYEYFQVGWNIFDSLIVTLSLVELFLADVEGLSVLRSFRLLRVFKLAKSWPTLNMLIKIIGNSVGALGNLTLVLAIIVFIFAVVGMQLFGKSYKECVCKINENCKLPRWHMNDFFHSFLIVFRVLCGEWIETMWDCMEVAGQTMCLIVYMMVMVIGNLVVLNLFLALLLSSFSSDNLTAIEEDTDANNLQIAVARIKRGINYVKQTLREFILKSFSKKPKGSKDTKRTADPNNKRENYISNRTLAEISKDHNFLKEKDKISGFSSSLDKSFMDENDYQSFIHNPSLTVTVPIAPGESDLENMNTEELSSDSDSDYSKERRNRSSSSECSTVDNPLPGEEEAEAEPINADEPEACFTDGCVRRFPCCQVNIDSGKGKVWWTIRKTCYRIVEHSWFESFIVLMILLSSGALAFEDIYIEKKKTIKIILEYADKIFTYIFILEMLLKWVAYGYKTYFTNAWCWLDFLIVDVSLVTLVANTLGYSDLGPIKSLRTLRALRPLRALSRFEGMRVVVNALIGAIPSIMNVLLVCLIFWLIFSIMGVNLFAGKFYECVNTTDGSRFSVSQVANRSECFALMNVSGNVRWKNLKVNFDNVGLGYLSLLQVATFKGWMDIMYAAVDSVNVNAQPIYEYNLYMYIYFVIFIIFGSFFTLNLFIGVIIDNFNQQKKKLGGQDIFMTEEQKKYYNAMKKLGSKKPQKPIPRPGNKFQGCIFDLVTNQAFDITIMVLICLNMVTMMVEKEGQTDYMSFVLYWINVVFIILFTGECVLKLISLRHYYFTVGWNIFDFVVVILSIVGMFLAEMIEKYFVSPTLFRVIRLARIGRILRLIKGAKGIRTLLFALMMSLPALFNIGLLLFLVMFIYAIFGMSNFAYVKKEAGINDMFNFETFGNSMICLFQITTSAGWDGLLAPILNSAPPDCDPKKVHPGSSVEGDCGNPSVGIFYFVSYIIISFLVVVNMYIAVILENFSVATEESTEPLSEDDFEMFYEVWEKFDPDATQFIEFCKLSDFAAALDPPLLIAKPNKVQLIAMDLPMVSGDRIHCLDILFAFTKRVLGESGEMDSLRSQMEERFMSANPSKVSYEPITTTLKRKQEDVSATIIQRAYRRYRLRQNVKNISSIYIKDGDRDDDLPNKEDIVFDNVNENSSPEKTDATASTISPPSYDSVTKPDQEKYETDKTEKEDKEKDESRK
ASSAY SUMMARY: Inhibition of mouse Nav1.7 at -60 mV holding potential by PatchXpress automated voltage clamp electrophysiology technique
To interpret pIC50, take it as minus log10 of a concentration measured in moles per litre.

For the compound CC1(COc2cc(F)c(C(=O)NS(=O)(=O)C3CC3)cc2C2CC2)CCC(F)(F)CC1 , what pIC50 is on record? 8.60

For the compound CC1(COc2cc(F)c(C(=O)NS(=O)(=O)C3CC3)cc2C2CC2)CCC2(CC1)CC2 , what pIC50 is on record? 8.66

----------
ASSAY SUMMARY: Drug concentration in plasma of FVB mouse model of aconitine-induced pain expressing human Nav1.7 I848T mutant at 3 mg/kg, po administered 120 mins prior to aconitine administered and measured after 70 mins by UPLC-ESI MS/MS analysis
Assay type: ADME, organism-based
CONDITION SUMMARY: time 190 min
OBSERVED PROPERTY: concentration at 3.167 h (µM)
Quick reminder: number only, in µM, skip the unit.

For the molecule CC1(COc2cc(F)c(C(=O)NS(=O)(=O)C3CC3)cc2C2CC2)CCC2(CC1)CC2 , what concentration at 3.167 h is on record? 25

----------
TARGET SYSTEM: Sodium channel protein type 9 subunit alpha (Homo sapiens)
Sequence (Q15858 whole entry): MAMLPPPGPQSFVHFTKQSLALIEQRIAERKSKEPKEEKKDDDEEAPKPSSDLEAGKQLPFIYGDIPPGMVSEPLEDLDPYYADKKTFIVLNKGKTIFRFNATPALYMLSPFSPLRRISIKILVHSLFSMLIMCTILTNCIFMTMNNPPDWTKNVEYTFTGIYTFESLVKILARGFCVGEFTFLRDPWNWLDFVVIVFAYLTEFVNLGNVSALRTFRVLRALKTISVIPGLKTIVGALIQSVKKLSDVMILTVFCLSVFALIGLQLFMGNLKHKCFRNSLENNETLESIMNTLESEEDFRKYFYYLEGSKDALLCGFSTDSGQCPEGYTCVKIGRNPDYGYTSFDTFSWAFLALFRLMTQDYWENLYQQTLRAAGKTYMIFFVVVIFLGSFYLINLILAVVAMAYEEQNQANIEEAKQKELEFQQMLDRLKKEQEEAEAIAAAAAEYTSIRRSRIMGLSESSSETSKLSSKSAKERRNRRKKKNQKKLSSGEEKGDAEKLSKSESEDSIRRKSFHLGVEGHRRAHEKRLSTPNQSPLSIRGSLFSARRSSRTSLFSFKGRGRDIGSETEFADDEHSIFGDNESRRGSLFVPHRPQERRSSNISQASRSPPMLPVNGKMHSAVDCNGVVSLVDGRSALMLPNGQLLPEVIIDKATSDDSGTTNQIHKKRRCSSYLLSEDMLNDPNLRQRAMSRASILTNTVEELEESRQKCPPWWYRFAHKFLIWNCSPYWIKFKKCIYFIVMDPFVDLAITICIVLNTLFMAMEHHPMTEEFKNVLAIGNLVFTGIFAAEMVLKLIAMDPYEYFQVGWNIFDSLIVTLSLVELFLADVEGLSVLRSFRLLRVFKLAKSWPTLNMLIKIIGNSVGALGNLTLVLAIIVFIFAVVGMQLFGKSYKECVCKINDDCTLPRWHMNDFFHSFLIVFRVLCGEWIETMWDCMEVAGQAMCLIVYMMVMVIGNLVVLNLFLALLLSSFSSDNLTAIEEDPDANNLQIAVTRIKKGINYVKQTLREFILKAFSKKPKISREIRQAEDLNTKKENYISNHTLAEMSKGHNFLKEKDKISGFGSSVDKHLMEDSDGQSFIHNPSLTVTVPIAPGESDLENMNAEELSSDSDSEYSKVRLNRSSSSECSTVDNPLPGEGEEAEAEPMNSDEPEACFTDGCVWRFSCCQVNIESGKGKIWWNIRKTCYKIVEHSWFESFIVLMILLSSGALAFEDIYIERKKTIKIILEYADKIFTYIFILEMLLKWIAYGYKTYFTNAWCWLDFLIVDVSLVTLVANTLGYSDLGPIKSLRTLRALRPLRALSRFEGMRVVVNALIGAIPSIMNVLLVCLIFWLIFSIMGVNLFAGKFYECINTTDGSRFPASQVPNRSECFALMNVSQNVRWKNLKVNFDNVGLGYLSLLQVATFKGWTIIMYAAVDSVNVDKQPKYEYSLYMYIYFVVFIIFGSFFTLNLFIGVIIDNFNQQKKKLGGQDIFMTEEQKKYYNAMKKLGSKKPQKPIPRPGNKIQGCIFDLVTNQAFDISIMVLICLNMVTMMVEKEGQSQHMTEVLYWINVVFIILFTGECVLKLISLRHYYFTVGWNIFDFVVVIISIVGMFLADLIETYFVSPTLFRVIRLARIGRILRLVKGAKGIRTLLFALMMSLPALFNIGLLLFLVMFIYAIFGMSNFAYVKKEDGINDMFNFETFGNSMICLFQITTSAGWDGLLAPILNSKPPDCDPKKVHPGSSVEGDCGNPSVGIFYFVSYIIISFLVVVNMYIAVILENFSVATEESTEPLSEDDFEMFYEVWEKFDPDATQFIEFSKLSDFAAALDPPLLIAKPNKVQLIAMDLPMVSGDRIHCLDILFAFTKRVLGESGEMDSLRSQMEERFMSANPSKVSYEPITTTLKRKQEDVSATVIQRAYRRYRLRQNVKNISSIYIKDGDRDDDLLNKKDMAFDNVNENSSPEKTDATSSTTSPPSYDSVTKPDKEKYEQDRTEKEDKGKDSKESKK
ASSAY SUMMARY: Inhibition of human Nav1.7 alpha subunit expressed in HEK293 cells co-expressing beta1 subunit at -60 mV holding potential by whole-cell patch voltage clamp electrophysiology recording
Type: cell-based
I'd appreciate it if you could supply IC50 values for the items below.
Quick reminder: number only, in nM, skip the unit.

For the molecule COCCS(=O)(=O)NC(=O)c1cc(C2CC2)c(OCC2CCC(F)(F)CC2)cc1F , what IC50 is on record? 75

For the molecule CS(=O)(=O)NC(=O)c1ccc(OCC23CC4CC(CC(C4)C2)C3)c(Cl)c1 , what IC50 is on record? 59

For the molecule CS(=O)(=O)NC(=O)c1cc(Cl)c(OCC2CCOCC2)cc1F , what IC50 is on record? 7400

For the molecule CS(=O)(=O)NC(=O)c1cc(Cl)c(OCC2CCCCC2)cc1F , what IC50 is on record? 43

For the molecule CS(=O)(=O)NC(=O)c1cc(C2CC2)c(OCC2CCCCC2)cc1F , what IC50 is on record? 0.7

----------
TARGET SYSTEM: Cytochrome P450 3A4 (Homo sapiens)
Sequence (P08684 whole entry): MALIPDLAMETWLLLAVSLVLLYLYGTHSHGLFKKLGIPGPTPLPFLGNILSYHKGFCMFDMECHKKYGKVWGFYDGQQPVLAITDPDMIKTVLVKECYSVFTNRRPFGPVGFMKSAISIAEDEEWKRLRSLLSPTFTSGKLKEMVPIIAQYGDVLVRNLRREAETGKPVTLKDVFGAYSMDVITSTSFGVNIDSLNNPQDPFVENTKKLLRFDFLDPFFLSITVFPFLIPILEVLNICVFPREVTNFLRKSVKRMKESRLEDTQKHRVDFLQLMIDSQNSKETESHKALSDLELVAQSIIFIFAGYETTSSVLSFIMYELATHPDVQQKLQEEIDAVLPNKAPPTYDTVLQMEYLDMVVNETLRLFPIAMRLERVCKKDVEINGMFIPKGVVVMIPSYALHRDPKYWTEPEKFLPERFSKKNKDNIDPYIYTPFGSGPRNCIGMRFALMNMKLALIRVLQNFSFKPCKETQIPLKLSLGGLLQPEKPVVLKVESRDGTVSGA
OBSERVED PROPERTY: IC50

For the molecule CC1(COc2cc(F)c(C(=O)NS(=O)(=O)C3CC3)cc2C2CC2)CCC2(CC1)CC2 , what IC50 is on record? > 10 µM

----------
ASSAY SUMMARY: Protein binding in human plasma
Format: ADME, cell-free
CONDITION SUMMARY: read-out: PPB (converted)
OBSERVED PROPERTY: fraction unbound
I only need the number, thanks.

For the compound CC1(COc2cc(F)c(C(=O)NS(=O)(=O)C3CC3)cc2C2CC2)CCC(F)(F)CC1 , what fraction unbound is on record? 0.004

For the compound CC1(COc2cc(F)c(C(=O)NS(=O)(=O)C3CC3)cc2C2CC2)CCC2(CC1)CC2 , what fraction unbound is on record? 0.001
